- Tested on: P. falciparum W2
- procedureDetails: P. falciparum W2 assay
- Assay type: cell-based
- runConditions: strain W2; read-out: P. falciparum W2 (EC50)
pEC50: −log10 of the molar value.
readoutKind: pEC50

Some molecules with known pEC50 results, for comparison:
| molecule | numericValue |
| --- | --- |
| Fc1cccc(COc2ccc(Nc3ncnc4ccc(-c5cccc(CN6CCCCC6)c5)cc34)cc2Cl)c1 [Compound 23i] | 7.14 |
| Cl.O=S(=O)(c1ccc(-c2ccc3ncnc(Nc4ccc(OCc5ccccc5F)c(Cl)c4)c3c2)cc1)N1CCOCC1 [Compound 20i, Hydrochloride] | 6.24 |
| O=S(=O)(c1ccc(-c2ccc3ncnc(Nc4ccc(OCc5cccc(F)c5)c(Cl)c4)c3c2)cc1)N1CCCC1 [Compound 10n] | 6.10 |
| Cc1cc(-c2ccc3ncnc(Nc4ccc(OCc5cccc(F)c5)c(Cl)c4)c3c2)cnc1N1CCOCC1 | 6.27 |
| Fc1cccc(COc2ccc(Nc3ncnc4ccc(-c5cccc(CN6CCOCC6)c5)cc34)cc2Cl)c1 [Compound 23c] | 6.46 |
| COc1ccc(Nc2ncnc3ccc(-c4ccc(S(=O)(=O)N5CCN(C)CC5)cc4)cc23)cc1Cl | 6.68 |
| Fc1cccc(COc2ccc(Nc3ncnc4ccc(-c5cccc(-n6cccn6)c5)cc34)cc2Cl)c1 | 4.72 |
| CN(C)c1cccc(-c2ccc3ncnc(Nc4ccc(OCc5cccc(F)c5)c(Cl)c4)c3c2)c1 | 5.85 |

1. CN1CCN(c2cccc(-c3ccc4ncnc(Nc5ccc(OCc6cccc(F)c6)c(Cl)c5)c4c3)c2)CC1
2. Fc1cccc(COc2ccc(Nc3ncnc4ccc(-c5ccc(CN6CCCCC6)cc5)cc34)cc2Cl)c1 [Compound 23j]
3. CN1CCN(S(=O)(=O)c2ccc(-c3ccc4ncnc(Nc5ccc(Cl)cc5)c4c3)cc2)CC1
4. CN1CCN(S(=O)(=O)c2ccc(-c3ccc4ncnc(Nc5ccc(F)cc5)c4c3)cc2)CC1
Prompt: # rank_down: sort by pEC50, max first Provide your answer as the labels ordered per the instruction.
Response: 1, 2, 3, 4

a. CN1CCN(S(=O)(=O)c2ccc(-c3ccc4ncnc(Nc5ccc(OCc6ccccc6)cc5)c4c3)cc2)CC1
b. Fc1cccc(Cn2ncc3ccc(Nc4ncnc5ccc(-c6cccc(N7CCOCC7)c6)cc45)cc32)c1
c. CN1CCN(S(=O)(=O)c2ccc(-c3ccc4ncnc(Nc5ccc(OCc6ccccc6)c(Cl)c5)c4c3)cc2)CC1
d. Fc1cccc(COc2ccc(Nc3ncnc4ccc(-c5ccccc5)cc34)cc2Cl)c1
Prompt: Would you mind ranking these molecules by ascending pEC50? Provide your answer as the labels ordered per the instruction.
Response: d, b, a, c
